- Tested on: HEL 92.1.7 cells
- experiment notes: Assay 1 cell proliferation measurement, HEL 92.1.7
- Format: cell-based
- run conditions: Homo sapiens, Erythroleukemia, read-out: Anti-proliferation IC50 [nM] HEL 92.1.7
Exercise: for every item that follows, state its recorded IC50.
# unit: nM | format: bare number

Reported IC50 for HEL 92.1.7 cells, given O=C1NN=C(c2ccc(N3CCC(F)(F)CC3)c(F)c2)CO1 ?
20

Form: Entry = O=C1NN=C(c2ccc(-c3ccc(Cl)cc3)c(C(F)(F)F)c2)CO1 | System = HEL 92.1.7 cells | IC50 = ____
47

Form field: IC50 recorded for COCCCc1ccc(C2=NNC(=O)OC2)cc1C(F)(F)F with HEL 92.1.7 cells (enter value)
26

Which IC50 is reported with HEL 92.1.7 cells for this entry: O=C1NN=C(c2ccc(-c3ccc(C(F)F)cc3)c(F)c2)CO1 ?
9

Hello, I am looking for reported IC50 with HEL 92.1.7 cells for O=C1NN=C(c2ccc(-c3cnn(C(F)F)c3)c(C(F)(F)F)c2)CO1 . Could you help?
13

Please provide the recorded IC50 for O=C1NN=C(c2ccc(-c3ccc(F)cc3)c(C(F)(F)F)c2)CO1 , tested on HEL 92.1.7 cells.
25

Observed IC50 on HEL 92.1.7 cells for CC(C)(C)CCc1ccc(C2=NNC(=O)OC2)cc1C(F)(F)F , please.
44

---

- measured target: UniProt Q13370
- Sequence (Q13370 whole entry): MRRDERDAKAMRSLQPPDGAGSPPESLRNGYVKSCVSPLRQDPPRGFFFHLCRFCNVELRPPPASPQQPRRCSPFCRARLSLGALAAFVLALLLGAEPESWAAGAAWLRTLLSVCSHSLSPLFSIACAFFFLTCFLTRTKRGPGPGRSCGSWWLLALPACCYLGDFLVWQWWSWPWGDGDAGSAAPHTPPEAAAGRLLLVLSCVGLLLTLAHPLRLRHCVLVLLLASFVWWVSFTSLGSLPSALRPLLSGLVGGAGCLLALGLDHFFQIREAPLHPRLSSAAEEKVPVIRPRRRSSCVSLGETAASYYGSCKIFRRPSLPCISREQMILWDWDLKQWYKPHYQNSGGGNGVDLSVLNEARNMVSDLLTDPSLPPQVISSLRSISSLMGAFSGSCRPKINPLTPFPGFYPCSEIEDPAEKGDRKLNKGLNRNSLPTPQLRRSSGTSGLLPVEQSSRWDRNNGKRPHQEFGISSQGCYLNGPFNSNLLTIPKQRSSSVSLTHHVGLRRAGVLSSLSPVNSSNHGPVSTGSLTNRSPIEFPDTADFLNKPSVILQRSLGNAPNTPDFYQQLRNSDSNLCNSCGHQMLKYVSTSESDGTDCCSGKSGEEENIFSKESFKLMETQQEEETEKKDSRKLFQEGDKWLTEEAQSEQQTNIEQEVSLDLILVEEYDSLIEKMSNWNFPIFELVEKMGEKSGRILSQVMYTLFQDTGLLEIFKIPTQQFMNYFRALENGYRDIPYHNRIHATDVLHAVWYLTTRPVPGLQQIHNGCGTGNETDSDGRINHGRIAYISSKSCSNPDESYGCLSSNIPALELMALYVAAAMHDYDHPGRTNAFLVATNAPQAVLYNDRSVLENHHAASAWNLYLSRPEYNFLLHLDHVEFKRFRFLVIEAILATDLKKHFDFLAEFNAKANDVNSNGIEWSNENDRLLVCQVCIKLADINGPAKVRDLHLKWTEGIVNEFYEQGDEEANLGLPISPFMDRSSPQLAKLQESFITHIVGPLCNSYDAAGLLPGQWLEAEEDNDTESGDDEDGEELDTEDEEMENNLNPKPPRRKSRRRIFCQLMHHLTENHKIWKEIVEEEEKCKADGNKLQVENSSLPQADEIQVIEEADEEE
Flag rule - IC50 less than 0.2 µM flags TRUE; the remaining entries get FALSE.

In plain terms, does O=C1NN=C(c2ccc(NCC3CCCO3)c(C(F)(F)F)c2)CO1 (racemic) come in under 0.2 µM for IC50?
TRUE

Please state whether IC50 is below 0.2 µM for O=C1NN=C(c2ccc(Br)c(C(F)(F)F)c2)CO1 [Intermediate 78]
TRUE

hey, is IC50 for O=C1NN=C(c2ccc(NCc3cnccn3)c(C(F)(F)F)c2)CO1 lower than 0.2 µM or not?
TRUE

Problem: For the compound Nc1cc(-c2ccc(C3=NNC(=O)OC3)cc2C(F)(F)F)ccc1Cl , is IC50 under 0.2 µM?
TRUE

Confirm or reject: IC50 of Cc1ncc(-c2ccc(C3=NNC(=O)OC3)cc2F)cn1 lies strictly below 0.2 µM
FALSE

---

- Test system: Hs 578T cells
- experiment notes: Assay 1 cell proliferation measurement, Hs 578T
- Format: cell-based
- run conditions: Homo sapiens, Breast, read-out: Anti-proliferation IC50 [nM] Hs 578T
Could you please report measured IC50 for the items listed next?
Express it in nM; write the number only.

Suppose we examine the compound O=C1NN=C(c2ccc(-c3ccc(F)cc3)c(C(F)(F)F)c2)CO1 [Example 3] ; what IC50 value has been reported?
29

Fill in the blank: the reported IC50 of CC(C)(C)CCc1ccc(C2=NNC(=O)OC2)cc1C(F)(F)F [Example 269] is ____.
66

Which measured IC50 value corresponds to O=C1NN=C(c2ccc(-c3cnn(C(F)F)c3)c(C(F)(F)F)c2)CO1 [Example 146] ?
28

What does the data say about its IC50? Entry: O=C1NN=C(c2ccc(-c3ccc(C(F)F)cc3)c(F)c2)CO1 [Example 92]
31

Which measured IC50 value corresponds to COCCCc1ccc(C2=NNC(=O)OC2)cc1C(F)(F)F [Example 267] ?
34

Hello, the source for this data is patent US11427553B2, in case you need it.
